assay: Metabolic stability in human liver microsome assessed as compound remaining at 5 uM after 30 mins; type: ADME; details: liver microsomes, read-out: Stability
Task for the reader: assign each of the following compounds its reported remaining at 0.5 h, 5 µM.
Lab book: enter the figure in %, no units written.

Kindly indicate its recorded remaining at 0.5 h, 5 µM. Item: Cn1cc(/C=C/C(=O)NS(=O)(=O)c2ccc(F)c(F)c2)c2c(Oc3ccc(F)c(Cl)c3)cccc21
91.5

Kindly indicate its recorded remaining at 0.5 h, 5 µM. Item: Cn1cc(/C=C/C(=O)NS(=O)(=O)c2cccc(Cl)c2)c2c(Oc3ccc4ccccc4c3)cccc21
79

Kindly indicate its recorded remaining at 0.5 h, 5 µM. Item: Cn1cc(/C=C/C(=O)NS(=O)(=O)c2cc(F)c(F)cc2F)c2c(Oc3ccc4ccccc4c3)cccc21
91.2

Kindly indicate its recorded remaining at 0.5 h, 5 µM. Item: Cn1cc(/C=C/C(=O)NS(=O)(=O)c2cc(F)c(F)cc2F)c2c(Oc3ccc(Cl)cc3Cl)cccc21
74.7

Kindly indicate its recorded remaining at 0.5 h, 5 µM. Item: Cn1cc(/C=C/C(=O)NS(=O)(=O)c2ccc(F)c(F)c2)c2c(Oc3ccc(Cl)cc3Cl)cccc21
74.7

Kindly indicate its recorded remaining at 0.5 h, 5 µM. Item: Cn1cc(/C=C/C(=O)NS(=O)(=O)c2ccc(F)c(F)c2)c2c(Oc3ccc(Cl)cc3F)cccc21
113

Kindly indicate its recorded remaining at 0.5 h, 5 µM. Item: Cn1cc(/C=C/C(=O)NS(=O)(=O)c2ccc(F)c(F)c2)c2c(Oc3ccc(Cl)c(Cl)c3)cccc21
58.8

Kindly indicate its recorded remaining at 0.5 h, 5 µM. Item: Cn1cc(/C=C/C(=O)NS(=O)(=O)c2ccc(F)c(F)c2)c2c(Oc3ccc4ccccc4c3)cccc21
63.6

* * *

Target: UniProt:P43115
Sequence (P43115 whole entry): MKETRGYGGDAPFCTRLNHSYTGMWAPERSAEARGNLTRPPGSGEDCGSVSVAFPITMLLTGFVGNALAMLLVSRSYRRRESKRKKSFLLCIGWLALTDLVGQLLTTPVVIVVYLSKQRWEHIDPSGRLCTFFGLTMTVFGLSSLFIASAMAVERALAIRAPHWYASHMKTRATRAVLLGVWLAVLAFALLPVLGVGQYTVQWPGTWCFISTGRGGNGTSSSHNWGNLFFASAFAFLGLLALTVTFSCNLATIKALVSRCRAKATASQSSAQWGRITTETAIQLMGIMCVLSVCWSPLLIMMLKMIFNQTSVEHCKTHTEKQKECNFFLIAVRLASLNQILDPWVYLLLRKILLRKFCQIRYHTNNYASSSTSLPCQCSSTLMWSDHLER
Test: Displacement of [3H]PGE2 from human EP3 receptor at 20 uM in presence of normal buffer
Result type: IC50 (nM)
Lab book: enter the figure in nM, no units written.

Please report IC50 with UniProt:P43115 for item Cn1cc(/C=C/C(=O)NS(=O)(=O)c2cc(F)c(F)cc2F)c2c(Oc3ccc(F)c(Cl)c3)cccc21 .
9.7

Please report IC50 with UniProt:P43115 for item Cn1cc(/C=C/C(=O)NS(=O)(=O)c2ccccc2Cl)c2c(Oc3ccc4ccccc4c3)cccc21 .
18.4

Please report IC50 with UniProt:P43115 for item Cn1cc(/C=C/C(=O)NS(=O)(=O)c2ccc(F)c(F)c2)c2c(Oc3ccc(F)cc3F)cccc21 .
18.5

Please report IC50 with UniProt:P43115 for item Cn1cc(/C=C/C(=O)NS(=O)(=O)c2ccc(F)c(F)c2)c2c(Oc3ccc(Cl)c(Cl)c3)cccc21 .
12.4

Please report IC50 with UniProt:P43115 for item COc1cccc(Oc2cccc3c2c(/C=C/C(=O)NS(=O)(=O)c2cc(F)c(F)cc2F)cn3C)c1 .
5.1

Please report IC50 with UniProt:P43115 for item Cn1cc(/C=C/C(=O)NS(=O)(=O)c2ccc(F)c(F)c2)c2c(Oc3ccc(F)c(F)c3)cccc21 .
4.7

Please report IC50 with UniProt:P43115 for item Cn1cc(/C=C/C(=O)NS(=O)(=O)c2cc(Cl)cc(Cl)c2)c2c(Oc3ccc4ccccc4c3)cccc21 .
8.7

Please report IC50 with UniProt:P43115 for item Cn1cc(/C=C/C(=O)NS(=O)(=O)c2cc(F)ccc2F)c2c(Oc3ccc4ccccc4c3)cccc21 .
6.5

* * *

target: Prostaglandin E2 receptor EP3 subtype (Homo sapiens); assay: Ratio IC50 for human EP3 receptor in presence of human serum to IC50 for human EP3 in absence of human serum
Result type: Ratio IC50

Kindly indicate its recorded Ratio IC50. Item: Cn1cc(/C=C/C(=O)NS(=O)(=O)c2ccc(F)c(F)c2)c2c(Oc3ccc(Cl)cc3Cl)cccc21
2

Kindly indicate its recorded Ratio IC50. Item: Cn1cc(/C=C/C(=O)NS(=O)(=O)c2ccc(F)c(F)c2)c2c(Oc3ccc(F)c(F)c3)cccc21
41.9

Kindly indicate its recorded Ratio IC50. Item: Cn1cc(/C=C/C(=O)NS(=O)(=O)c2cc(F)c(F)cc2F)c2c(Oc3ccc(Cl)c(F)c3)cccc21
8

* * *

Task for the reader: assign each of the following compounds its reported IC50.
biological target: Prostaglandin E2 receptor EP3 subtype (Homo sapiens); test: Displacement of [3H]PGE2 from human EP3 receptor at 20 uM in presence of normal buffer
Lab book: enter the figure in nM, no units written.

Kindly indicate its recorded IC50. Item: Cn1cc(/C=C/C(=O)NS(=O)(=O)c2cc(F)c(F)cc2F)c2c(Oc3ccc4ncccc4c3)cccc21
8.5

Kindly indicate its recorded IC50. Item: Cn1cc(/C=C/C(=O)NS(=O)(=O)c2cc(F)c(F)cc2F)c2c(Oc3ccc(Cl)cc3)cccc21
3

Kindly indicate its recorded IC50. Item: COc1cccc(Oc2cccc3c2c(/C=C/C(=O)NS(=O)(=O)c2ccc(F)c(F)c2)cn3C)c1
4.4

Kindly indicate its recorded IC50. Item: Cn1cc(/C=C/C(=O)NS(=O)(=O)c2cc(F)c(F)cc2F)c2c(Oc3ccc(Cl)cc3F)cccc21
4.4

Kindly indicate its recorded IC50. Item: Cn1cc(/C=C/C(=O)NS(=O)(=O)c2ccc(F)cc2)c2c(Oc3ccc4ccccc4c3)cccc21
9.4

Kindly indicate its recorded IC50. Item: Cn1cc(/C=C/C(=O)NS(=O)(=O)c2cc(F)c(F)cc2F)c2c(Oc3cnc4ccccc4n3)cccc21
7.2

Kindly indicate its recorded IC50. Item: Cn1cc(/C=C/C(=O)NS(=O)(=O)c2ccc(F)c(F)c2)c2c(Oc3ccc(Cl)c(F)c3)cccc21
23.4

Kindly indicate its recorded IC50. Item: Cn1cc(/C=C/C(=O)NS(=O)(=O)c2c(F)c(F)c(F)c(F)c2F)c2c(Oc3ccc4ccccc4c3)cccc21
5.1

* * *

Task for the reader: assign each of the following compounds its reported pIC50.
molecular target: UniProt:P34995; assay: Displacement of radioligand from EP1 receptor
Sequence (P34995 whole entry): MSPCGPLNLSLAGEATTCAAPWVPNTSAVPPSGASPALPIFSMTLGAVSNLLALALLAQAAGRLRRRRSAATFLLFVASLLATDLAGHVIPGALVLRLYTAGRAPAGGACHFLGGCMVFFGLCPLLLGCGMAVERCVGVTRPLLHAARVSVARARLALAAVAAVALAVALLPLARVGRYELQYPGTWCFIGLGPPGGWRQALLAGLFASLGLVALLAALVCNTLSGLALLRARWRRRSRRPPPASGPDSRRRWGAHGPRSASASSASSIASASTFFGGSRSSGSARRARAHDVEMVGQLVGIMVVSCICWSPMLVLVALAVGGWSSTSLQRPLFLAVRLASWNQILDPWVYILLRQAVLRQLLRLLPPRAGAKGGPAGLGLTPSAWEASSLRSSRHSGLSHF
pIC50: −log10 of the molar value.

Please report pIC50 with UniProt:P34995 for item Cn1cc(/C=C/C(=O)NS(=O)(=O)c2ccc(F)c(F)c2)c2c(Oc3ccc(Cl)cc3F)cccc21 .
< 5.00

Please report pIC50 with UniProt:P34995 for item Cn1cc(/C=C/C(=O)NS(=O)(=O)c2cc(F)c(F)cc2F)c2c(Oc3ccc(F)c(Cl)c3)cccc21 .
< 5.00

Please report pIC50 with UniProt:P34995 for item Cn1cc(/C=C/C(=O)NS(=O)(=O)c2cc(F)c(F)cc2F)c2c(Oc3ccc(Cl)c(F)c3)cccc21 .
5.86

Please report pIC50 with UniProt:P34995 for item Cn1cc(/C=C/C(=O)NS(=O)(=O)c2ccc(F)c(F)c2)c2c(Oc3ccc(Cl)c(Cl)c3)cccc21 .
< 5.00

* * *

target: Prostaglandin E2 receptor EP3 subtype (Homo sapiens, UniProt P43115); experiment: Displacement of [3H]PGE2 from human EP3 receptor at 20 uM in presence of normal buffer
Task for the reader: assign each of the following molecules its reported pIC50.
pIC50 is defined as minus the log10 of a concentration measured in mol/L.

Kindly indicate its recorded pIC50. Item: Cn1cc(/C=C/C(=O)NS(=O)(=O)c2cccc(F)c2)c2c(Oc3ccc4ccccc4c3)cccc21
7.76

Kindly indicate its recorded pIC50. Item: Cn1cc(/C=C/C(=O)NS(=O)(=O)c2ccc(Cl)c(Cl)c2)c2c(Oc3ccc4ccccc4c3)cccc21
7.93

Kindly indicate its recorded pIC50. Item: Cn1cc(/C=C/C(=O)NS(=O)(=O)c2ccc(F)cc2F)c2c(Oc3ccc4ccccc4c3)cccc21
8.46

Kindly indicate its recorded pIC50. Item: Cn1cc(/C=C/C(=O)NS(=O)(=O)c2ccc(F)c(F)c2)c2c(Oc3ccc(Cl)cc3F)cccc21
8.14

Kindly indicate its recorded pIC50. Item: Cn1cc(/C=C/C(=O)NS(=O)(=O)c2cc(F)c(F)cc2F)c2c(Oc3ccc(Cl)c(Cl)c3)cccc21
8.59

Origin of measurements: ChEMBL document CHEMBL1153263
